assay: Cytotoxicity against human WI38 cells after 72 hrs by MTT assay; assay type: cell-based; conditions: WI-38, 72 h
Result type: IC50

Incoming: Indicate its recorded IC50; the molecule in question is Cc1ccc(S(=O)(=O)Oc2ccc(NCc3ccccc3)c3c2C(=O)c2ccccc2C3=O)cc1
Outgoing: > 10 µM

---

assay: Cytotoxicity against human ChaGo cells at 10 uM after 72 hrs by MTT assay; format: functional
// label = 1.0 if Activity is not less than 10%, otherwise 0.0

Incoming: Entry Cc1ccc(S(=O)(=O)Oc2ccc(NCc3ccccc3)c3c2C(=O)c2ccccc2C3=O)cc1 : is its Activity no less than 10%?
Outgoing: 1.0

Incoming: Entry CCN(CC)c1ccc(OS(=O)(=O)c2ccc(C)cc2)c2c1C(=O)c1ccccc1C2=O : is its Activity no less than 10%?
Outgoing: 1.0

Incoming: Entry Cc1ccc(S(=O)(=O)Oc2ccc(N3CCOCC3)c3c2C(=O)c2ccccc2C3=O)cc1 : is its Activity no less than 10%?
Outgoing: 1.0

Incoming: Entry Cc1ccc(S(=O)(=O)Oc2ccc(NCCN3CCOCC3)c3c2C(=O)c2ccccc2C3=O)cc1 : is its Activity no less than 10%?
Outgoing: 0.0

Incoming: Entry O=C1c2ccccc2C(=O)c2c(O)ccc(O)c21 [QUINIZARIN] : is its Activity no less than 10%?
Outgoing: 1.0

Incoming: Entry Cc1ccc(S(=O)(=O)Oc2ccc(OS(=O)(=O)c3ccc(C)cc3)c3c2C(=O)c2ccccc2C3=O)cc1 : is its Activity no less than 10%?
Outgoing: 0.0

Incoming: Entry Cc1ccc(S(=O)(=O)Oc2ccc(NCCc3ccccc3)c3c2C(=O)c2ccccc2C3=O)cc1 : is its Activity no less than 10%?
Outgoing: 1.0
